target: T1, human serum albumin (human, UniProt P02768 25-609); experiment: table of affinities (KD); BIACORE on serum albumin-coated chip according to Example 1;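 also: surface plasmon resonance with dAbs flowed over a chip carrying human, rat or mouse serum albumin, blocked uncoated flow cell as reference, KD from on- and off-rate curve fits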
T1 construct: also called HSA; HAS
Documented Kd across a set of binders
Write down the numeric answer in nM and omit the unit.

- DOM7h-22 (other) VH: EVQLLESGGGLVQPGGSLRLSCAASGFTFSKYWMSWVRQAPGKGLEWVSSIDFMGPHTYYADSVKGRFTISRDNSKNTLYLQMNSLRAEDTAVYYCAKGRTSMLPMKGKFDYWGQGTLVTVSS: 60
- DOM7h-1 (other, also called DOM7-1) VL: DIQMTQSPSSLSASVGDRVTITCRASQSISSYLNWYQQKPGKAPKLLIYRNSFLQSGVPSRFSGSGSGTDFTLTISSLQPEDFATYYCQQTYTVPPTFGQGTKVEIKQ: 800
- DOM7h-2 (other) VL: DIQMTQSPSSLSASVGDRVTITCRASQKIATYLNWYQQKPGKAPKLLIYRSSSLQSAVPSRFSGSGSGTVFTLTISSLQPEDFATYYCQQTYAVPPTFGQGTKVEIKR: 70

Now consider the entry below.
Qu. What Kd value was documented for this binder, DOM7h-26 (other) VH: EVQLLESGGGLVQPGGSLRLSCTASGFTFDEYNMSWVRQAPGKGLEWVSTILPHGDRTYYADSVKGRFTISRDNSKNTLYLQMNSLRAEDTAVYYCAKQDPLYRFDYWGQGTLVTVSS ?
Ans. 300
